Taken from patent US12083101B2.

Readings of IC50 for the listed compounds
Tested on: MKN-45/Ubc-luc cells
Experiment: Reporter gene specificity control (Ubc-luciferase), MKN-45
Conditions: Homo sapiens, MKN-45, 24 h, read-out: Reporter gene assay MKN-45 IC50 [μM], MKN-45/Ubc-luc cells (YAP deleted, specificity control), 24 hours incubation

**Q:** Annotate the compound CNC[C@]1(c2cccc(O)n2)Oc2cc(F)c(Cl)c(-c3c(C(N)=O)ccc(OC)c3F)c2[C@@H]1C (atropisomer, axis not shown) with its measured IC50.
**A:** > 10 µM

###

Test system: MKN-45/Ubc-luc cells
Test: Reporter gene specificity control (Ubc-luciferase), MKN-45
Conditions: Homo sapiens, MKN-45, 24 h, read-out: Reporter gene assay MKN-45 IC50 [μM], MKN-45/Ubc-luc cells (YAP deleted, specificity control), 24 hours incubation
Readings of IC50 for the listed molecules

**Q:** Annotate the molecule COc1ccc(C(N)=O)c(-c2c(Cl)c(F)cc3c2C[C@@](CN)(c2ccccc2)O3)c1F (atropisomer, axis not shown) with its measured IC50.
**A:** > 10 µM

**Q:** Annotate the molecule CNC(=O)c1ccc(OCCO)c(F)c1-c1c(Cl)c(F)cc2c1C[C@](c1ccccc1)(C1CCN1)O2 (stereo partly drawn) with its measured IC50.
**A:** > 10 µM

**Q:** Annotate the molecule COc1ccc(C(N)=O)c(-c2c(Cl)c(F)cc3c2[C@H](OC)[C@](c2ccccc2)(C2CCCN2)O3)c1F (stereo partly drawn) with its measured IC50.
**A:** > 10 µM

**Q:** Annotate the molecule COCCOc1ccc(C(N)=O)c(-c2c(Cl)c(F)cc3c2[C@H](C)[C@@](CN)(c2ccccc2)O3)c1F (atropisomer, axis not shown) with its measured IC50.
**A:** > 10 µM

**Q:** Annotate the molecule NC[C@@]1(c2ccccc2)Cc2c(ccc(Cl)c2-c2c(C(N)=O)ccc(OC(F)F)c2F)O1 (atropisomer, axis not shown) with its measured IC50.
**A:** > 20 µM

**Q:** Annotate the molecule CNC(=O)c1ccc(OC[C@H](C)O)c(F)c1-c1c(Cl)c(F)cc2c1[C@H](C)[C@](c1ccccc1)(C1CCN1)O2 (stereo partly drawn) with its measured IC50.
**A:** > 10 µM

**Q:** Annotate the molecule COc1ncc(C(N)=O)c(-c2c(Cl)ccc3c2C[C@@](CN)(c2ccccc2)O3)c1F (atropisomer, axis not shown) with its measured IC50.
**A:** 19.5 µM

**Q:** Annotate the molecule C[C@@H](F)COc1ccc(C(N)=O)c(-c2c(Cl)ccc3c2C[C@@](CN)(c2ccccc2)O3)c1F (atropisomer, axis not shown) with its measured IC50.
**A:** > 10 µM

**Q:** Annotate the molecule COCCOc1ccc(C(N)=O)c(-c2c(Cl)c(F)cc3c2C[C@@](CN)(c2ccccc2)O3)c1F (atropisomer, axis not shown) with its measured IC50.
**A:** > 10 µM

###

Target: Avi-humanTEAD4 217-434 / Cy5 labeled humanYAP 60-100 (Homo sapiens (Human), UniProt Q15561)
Sequence (Q15561 217-434): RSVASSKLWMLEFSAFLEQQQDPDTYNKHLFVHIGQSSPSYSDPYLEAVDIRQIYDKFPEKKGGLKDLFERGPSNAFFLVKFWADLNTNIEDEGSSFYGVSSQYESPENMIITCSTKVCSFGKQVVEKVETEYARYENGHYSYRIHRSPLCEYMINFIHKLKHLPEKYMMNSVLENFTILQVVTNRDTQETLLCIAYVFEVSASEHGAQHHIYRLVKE
Assay: TR-FRET YAP-TEAD4 in-vitro biochemical assay
Settings: 1 nM Avi-humanTEAD4 217-434, 20 nM Cy5-humanYAP 60-100, 1 h room temperature
Readings of IC50 for the listed compounds
Enter your answer as a number in nM; do not include the unit.

Examples from the recorded data:
COMPOUND: CCc1ccc(C(N)=O)c(-c2c(Cl)c(F)cc3c2C[C@@](CN[C@H]2CC[C@](C)(O)CC2)(c2ccccc2)O3)c1F (atropisomer, axis not shown) [Example 68a]
PROPERTY: IC50
REPORTED_VALUE: 10
--
COMPOUND: C[C@]1(O)CC[C@H](NC[C@@]2(c3ccccc3)Cc3c(cc(F)c(Cl)c3-c3c(C(N)=O)ccc(OC[C@H]4CCCO4)c3F)O2)CC1 (atropisomer, axis not shown) [Example 67b]
PROPERTY: IC50
REPORTED_VALUE: 3
--
COMPOUND: CN(C)C(=O)C1CCC(NC[C@@]2(c3ccccc3)Cc3c(cc(F)c(Cl)c3-c3c(C(N)=O)ccc(OC(F)F)c3F)O2)CC1 (single isomer, unassigned) [Example 58b]
PROPERTY: IC50
REPORTED_VALUE: 6
--
COMPOUND: CO[C@H]1CC[C@H](NC[C@]2(c3ccccc3)Oc3cc(F)c(Cl)c(-c4c(C(N)=O)ccc(OC(F)F)c4F)c3[C@@H]2O)CC1 (relative stereo) [Example 136b]
PROPERTY: IC50
REPORTED_VALUE: 7

Let us examine a further case.
**Q:** Annotate the compound NC(=O)c1ccc(OC(F)F)c(F)c1-c1c(Cl)c(F)cc2c1C[C@@](CN[C@H]1CC[C@H](O)CC1)(c1ccccc1)O2 (atropisomer, axis not shown) [Example 72] with its measured IC50.
**A:** 2
